System: bovine pancreatic trypsin (Bos taurus) | Read-out: pIC50
Sequence (P00760 24-246): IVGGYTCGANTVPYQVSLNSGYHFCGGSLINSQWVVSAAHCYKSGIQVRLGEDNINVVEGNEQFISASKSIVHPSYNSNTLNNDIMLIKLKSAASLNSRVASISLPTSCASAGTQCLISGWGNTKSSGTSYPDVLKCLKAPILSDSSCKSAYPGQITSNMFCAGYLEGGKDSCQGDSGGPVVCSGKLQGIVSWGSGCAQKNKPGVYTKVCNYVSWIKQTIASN
pIC50 here: minus log base 10 of the concentration, concentration in moles per litre.

| Compound | pIC50 |
| --- | --- |
| C=CC1=C(C)/C(=C/C2=NC(=C\c3[nH]c(/C=C4\NC(=O)C(C)=C4C=C)c(C)c3CCC(=O)O)/C(CCC(=O)O)=C2C)NC1=O [Biliverdin] | 4.90 |
| C=CC1=C(C)/C(=C/c2[nH]c(Cc3[nH]c(/C=C4\NC(=O)C(C)=C4C=C)c(C)c3CCC(=O)O)c(CCC(=O)O)c2C)NC1=O [Unconjugated Bilirubin] | 5.46 |
| CCC1=C(C)/C(=C/c2[nH]c(Cc3[nH]c(/C=C4\NC(=O)C(C)=C4CC)c(C)c3CCC(=O)O)c(CCC(=O)O)c2C)NC1=O [Mesobilirubin] | 5.41 |

# input for lookup
What is its pIC50 for bovine pancreatic trypsin (Bos taurus)? Entry: CCC1=C(C)C(Cc2[nH]c(Cc3[nH]c(CC4NC(=O)C(C)=C4CC)c(C)c3CCC(=O)O)c(CCC(=O)O)c2C)NC1=O (stereo not shown) [Urobilinogen]
5.32
